# System: ACHN renal
# assay.comment: NCI tumour cell line growth inhibition, 48 h
measured.attribute: TGI

Prompt: Could you share which TGI value was measured for O=c1cc(-c2ccccc2)[nH]c2ccc(N3CCOCC3)cc12 ?
Response: > 91 µM

Prompt: Find the recorded TGI belonging to N=C(N)C1CN(CCCCCCCCCCN2CC(C(=N)N)C(=O)NC2=O)C(=O)NC1=O (stereo not given) and report it.
Response: > 10 µM

Prompt: Item under review: CN1CC[C@]23c4c5ccc(O)c4O[C@H]2C(O)CC[C@@]3(O)[C@H]1C5 (stereo not given in full) . Reported TGI?
Response: > 100 µM

Prompt: I have this molecule here, CN(O)C(=O)SCC(NC(=O)CCC(N)C(=O)O)C(=O)NCC(=O)O (stereo not given) , and I need its recorded TGI.
Response: > 2000 µM

Prompt: Look up TGI: O=[N+]([O-])c1c(F)c(F)c2c(c1F)Nc1ccccc1S2
Response: 29.1 µM

====

# Tested on: HL-60(TB) leukemia
# assay.comment: NCI tumour cell line growth inhibition, 48 h; in the data active = GI50 below about 0.43 µM; inactive = the rest
Where a SMILES comes first, the peptide text is derived from it. [ ]: non-standard residue; d: D form. pGlu = O=C1CC[CH](C(=O)O)N1
Write down one outcome, taken from active, inactive

Prompt: Lab log entry: C[C@H](NC(=O)[C@@H](C)N)[C@H](Oc1ccc2c(cnn2-c2ccc(F)cc2)c1)c1ccc2c(c1)OCCO2 — outcome as called in the assay?
Response: inactive

Prompt: How did this test come out for CCN(Cc1ccc(Cl)cc1)c1ccc(CO)c(Cl)c1 ?
Response: inactive

Prompt: Dear all, I need the recorded test outcome for Oc1c(-c2nnc(-c3ccccc3Cl)o2)sc2nnc(-c3ccccc3)c(-c3ccccc3)c12 , thank you.
Response: inactive

Prompt: Please indicate how the test categorized CC(=O)NC1C(OC[C@@H](CC(=O)N[C@@H](CC(=O)O)CC(=O)N[C@H](CC(=O)N[C@@H](CCCN)CC(=O)N[C@@H](CCCN)CC(=O)N[C@H](CC(N)=O)C(C)C)C(C)C)NC(=O)C[C@@H](N)C(C)C)OC(CO)C(O)C1O (stereo partly specified) .
Response: inactive

Prompt: Just curious, what result did Clc1nc(Cl)c2ncn(CC3(Cn4cnc5c(Cl)nc(Cl)nc54)COC3)c2n1 get here?
Response: active

Prompt: Hello, I am checking results. What call was entered for Cc1cccc(/C=C/c2c(C(=O)/C=C/c3ccccc3)c(C)nc3ccccc23)c1 ?
Response: inactive

Prompt: Please indicate how the test categorized Fc1ccc(C2CC(c3cccc(Nc4ccncc4)c3)=NN2c2ccc(Cl)cc2)cc1 (stereo unspecified) .
Response: inactive

Prompt: Test call, this molecule: CCNC(=O)C1CCCN1C(=O)C(CCCN=C(N)N)NC(=O)C(CC(C)C)NC(=O)C(CC(C)C)NC(=O)C(Cc1ccc(O)cc1)NC(=O)C(CO)NC(=O)C(Cc1c[nH]c2ccccc12)NC(=O)C(Cc1cnc[nH]1)NC(=O)C1CCC(=O)N1 (stereo unspecified) ([pGlu]HWSYLLRP-NHEt; configuration not given here)
Response: inactive

Prompt: Write down the call the test reported for this molecule. Item: CN(CCO)CC[C@H](CSc1ccccc1)Nc1ccc(S(=O)(=O)NC(=O)c2ccc(N3CCC([C@@H](O)c4ccccc4-c4ccc(Cl)cc4)CC3)cc2)cc1S(=O)(=O)C(F)(F)F
Response: inactive

Prompt: // return assay outcome for O=C(Oc1cccc(F)c1OC(=O)c1cccc(O)c1)c1cccc(O)c1
Response: inactive

Prompt: Test call, this molecule: COc1ccc(C(=S)N2CCN(c3cccc(C)c3)CC2)cc1OC
Response: inactive

Prompt: For this molecule, state the assay outcome: COc1ccc(-c2nn(-c3cccc(Cl)c3)cc2-c2cc(-c3cccs3)[nH]c(=S)n2)cc1
Response: inactive

Prompt: Tell me the recorded outcome of this test for COc1cccc(N2CCN(CC(=O)N3CCN(c4nnc(-c5ccc(Cl)cc5)c(-c5ccc(Cl)cc5)n4)CC3)CC2)c1 .
Response: inactive

Prompt: Hey, what did the test say about CCOC(=O)c1c(C)nc2c(c1N)CC(=O)N2Cc1ccc(OC)cc1 ?
Response: inactive

Prompt: Hey, what did the test say about COc1ccc(/C=C/C(=O)c2cc(OC)c(OC)c(OC)c2)cc1OCc1cn(Cc2ccc(F)cc2)nn1 ?
Response: inactive

Prompt: Would you mind telling me which call this test gave O=C1C(Cl)=C(Nc2cccc(Cl)c2)C(=O)N1Cc1ccc(Cl)cc1 ?
Response: inactive

====

Exercise: for every item that follows, state its recorded TGI.
# Tested on: HOP-62 NSCLC
# assay.comment: NCI tumour cell line growth inhibition, 48 h
Write the answer as a number in µM, unit excluded.

Prompt: Checklist item: TGI tested on HOP-62 NSCLC, entry COc1ccc2nc3cc(Cl)ccc3c(NCCNC(=O)Cn3c(=O)n(C)c(=O)c4c3nc3c(c(=O)n(C)c(=O)n3C)[n+]4[O-])c2c1 , value?
Response: 50.8

Prompt: Query for HOP-62 NSCLC: what TGI does the record show for Cc1cccc(/C=C/c2c(C(=O)/C=C/c3ccccc3)c(C)nc3ccccc23)c1 ?
Response: 3.48

Prompt: Test system HOP-62 NSCLC; read-out TGI; what value for CCOC(=O)N1CCN(/[N+]([O-])=N/Oc2ccc([N+](=O)[O-])cc2[N+](=O)[O-])CC1 ?
Response: 13.6

Prompt: Form field - read-out: TGI; system: HOP-62 NSCLC; submitted item: CN(CCNC(=O)c1nn(-c2ccccc2)c2c1Cc1ccccc1-2)CCNC(=O)c1nn(-c2ccccc2)c2c1Cc1ccccc1-2
Response: 3.6

Prompt: Tell me reported TGI for COc1ccc(C(=S)N2CCN(c3cccc(C)c3)CC2)cc1OC , tested with HOP-62 NSCLC.
Response: 29.4

Prompt: # query: TGI | item C[C@]12C[C@H](CCCCCCNCCOC(=O)NCCCc3ccc(N(CCCl)CCCl)cc3)C3=C4CCC(=O)C=C4CCC3C1CC[C@@H]2O (some centres not stated) | system: HOP-62 NSCLC
Response: 10.4

====

# Test system: ACHN renal
# assay.comment: NCI tumour cell line growth inhibition, 48 h
I'd be grateful if you could share measured TGI for these entries.
Kindly answer with a numeric value in µM, unit omitted.

Prompt: Recorded TGI of COc1cc(C(=O)/C=C/c2ccc(OCC#N)cc2)cc(OC)c1OC , please.
Response: 51.8

Prompt: GET /values?readout=TGI&item= O=[N+]([O-])C(=C(Nc1ccccc1)Nc1ccccc1)/C(Cl)=C(\Cl)[N+](=O)[O-]
Response: 7.12

Prompt: Look up TGI for this compound: O=C(CCCCCCNC(=O)c1cnc(N(c2ccccc2)c2ccccc2)nc1)NO
Response: 23.2

====

# Test system: KM20L2 colon
# assay.comment: NCI tumour cell line growth inhibition, 48 h
Exercise: for every item that follows, state its recorded TGI.

Prompt: For the compound CC1(C)O[C@H]2[C@H](O)C[C@](O)(CO)C[C@H]2O1 , what TGI is on record?
Response: > 100 µM

Prompt: Could you share which TGI value was measured for COC1=C(N)C(=O)c2nc(C)ccc2C1=O ?
Response: 5.07 µM

Prompt: So what does the record say about TGI for CC1=C(C(=O)Nc2cc(=O)n(C)c(=O)n2C)C(c2ccco2)C(C(=O)Nc2cc(=O)n(C)c(=O)n2C)=C(C)N1 ?
Response: > 100 µM

Prompt: Given the compound O=C(NCCCCNc1cccccc1=O)OCc1ccccc1 , what is its reported TGI?
Response: > 100 µM

Prompt: Endpoint output: TGI of Brc1ccc(C2CC(c3cccc4ccccc34)=Nc3ccccc3S2)cc1 (stereo not given) . Value?
Response: > 100 µM

Prompt: Item under review: CS(=O)(=O)OC1CCC2(C#N)CCC1C2=O (stereo not given) . Reported TGI?
Response: > 100 µM

Prompt: Recorded TGI for N#CC1(C#N)C2(c3ccccc3)OC(c3ccccc3)(c3cc4ccccc4cc32)C1(C#N)C#N , please?
Response: 26.4 µM

Prompt: Requested field: TGI. Item: c1coc(CNc2ncnc3[nH]ncc23)c1
Response: > 100 µM

Prompt: Quick one: TGI for CN(/N=C/c1cccc2cccnc12)c1ccc([N+](=O)[O-])cc1[N+](=O)[O-] ?
Response: > 100 µM

Prompt: May I ask what TGI has been recorded for NC(=O)C(=O)N/N=C1\C(=O)N(c2ccc(Cl)cc2Cl)C(=O)C1C(=O)Nc1ccc(Cl)cc1Cl (stereo not given) ?
Response: > 100 µM

====

# System: SW-620 colon
# assay.comment: NCI tumour cell line growth inhibition, 48 h
Please respond with reported TGI for every item in the list.

Prompt: Value lookup for TGI; key = O=c1[nH]c(=O)c2cn[nH]c2[nH]1
Response: > 100 µM

Prompt: What TGI value was documented for this compound, O=C(O)c1n[nH][nH]c1=S ?
Response: > 100 µM

Prompt: Item under review: O=C(c1ccccc1)c1ccccc1-c1ccccc1 . Reported TGI?
Response: > 100 µM

Prompt: Given the entry COc1ncnc2c(-c3ccccc3)cn(COCc3ccccc3)c12 , report its measured TGI.
Response: > 100 µM

Prompt: Entry under review: C=C(CCOC)CCC1CCCCC(=C)[C@H]1OC(C)=O (some centres undefined) . Reported TGI?
Response: > 100 µM

Prompt: Param item = N#Cc1ccc(OCc2nc(N)nc(N)c2-c2ccc(Cl)c(Cl)c2)cc1 ; retrieve measured TGI.
Response: > 100 µM

Prompt: Which TGI is reported for this compound? CCOC(=O)c1nn2c(nc1=O)sc1ccc3ccccc3c12
Response: > 100 µM

Prompt: # get_value(readout='TGI', item= CC(=O)c1ccc2c(c1)c1c(C)c3c[n+](C)ccc3c(C)c1n2C )
Response: > 85.4 µM

Prompt: Which TGI is reported for this compound? CCN(Cc1cc(Nc2nc(C)cn3c(-c4cn[nH]c4)cnc23)sn1)C(C)(C)CO
Response: 5.08 µM

Prompt: Would you kindly share the measured TGI for N#CC1(C#N)C2(c3ccccc3)OC(c3ccccc3)(c3cc4ccccc4cc32)C1(C#N)C#N ?
Response: 9.72 µM

Prompt: # query: TGI of entry O=c1cc(-c2ccccc2)c2ccccc2[nH]1
Response: > 100 µM

Prompt: Can you look up the measured TGI of O=C(O)C1=C(O)C(C(=O)O)C23CCCCCCCCCCC12C(C(=O)O)C(O)=C3C(=O)O (centres undefined) for me?
Response: > 100 µM

Prompt: TGI for O=C(O)CCCSC(=O)Nc1ccc(N=Nc2ccccc2)cc1 ?
Response: > 100 µM

Prompt: What value of measured TGI is listed for O=C(COc1ccc(Cl)cc1)N1N=C(c2ccc(Cl)cc2)CC1(O)c1ccccc1 (centres undefined) ?
Response: > 69.3 µM

Prompt: Return reported TGI; argument: CN1CCc2c3n(c4cc(Br)ccc24)[C@H](O)CCCC31 (some centres undefined)
Response: 3.47 µM

Prompt: Requested field: TGI. Item: COC(=O)[C@H](Cc1ccccc1)NP(=O)(OCCC#N)OCC1OC(n2cc(C)c(=O)[nH]c2=O)CC1N=[N+]=[N-] (some centres undefined)
Response: > 100 µM

Prompt: GET /values?readout=TGI&item= O=C(O)CCN(CCCCN(CCC(=O)O)CCC(=O)O)CCC(=O)O
Response: > 100 µM

Prompt: Given the entry CN1CCN(C(=S)N(C(=O)c2ccc(Cl)cc2)c2ccccc2)CC1 , report its measured TGI.
Response: > 100 µM

Prompt: I have this compound here, CCN1C(=O)N(CC)C2C1NN=c1s/c(=C\c3cccc(F)c3)c(=O)n12 (centres undefined) , and I need its recorded TGI.
Response: > 100 µM

Prompt: Requested field: TGI. Item: COc1ccc(OC)c(-c2nc3n(c2/C=C2/C(=O)Nc4ccccc42)CCS3)c1
Response: > 100 µM

Prompt: Any idea what its TGI is? The compound is COc1cc(C(O)CCBr)c(OC)cc1C (centres undefined)
Response: > 100 µM

Prompt: Record request: TGI value, item C=CCOc1cc(NC(=S)c2ccoc2C)ccc1OC
Response: > 100 µM

Prompt: Item Fc1ccc(C2CC(c3cccc(Nc4ccncc4)c3)=NN2c2ccc(Cl)cc2)cc1 (centres undefined) has what recorded TGI?
Response: 3.09 µM

Prompt: Form field: reported TGI of COc1cc(C(=O)/C=C/c2ccc(OCC#N)cc2)cc(OC)c1OC
Response: 37.3 µM

Prompt: Which TGI value is on record for COc1cc(C=O)cc(/C=N/n2c3ccccc3c3ccccc32)c1O ?
Response: > 100 µM

Prompt: Entry under review: C[C@@]1(O)C[C@@H](N2C(=O)O[C@@H](c3ccccc3)[C@H]2c2ccccc2)[C@@H]1COCc1ccccc1 . Reported TGI?
Response: > 100 µM

Prompt: Consider the compound CC12O[C@]3([C@H](C(=O)N4CCOC43C)[C@H]1Cl)[C@H]1O[C@H]12 (some centres undefined) and give its measured TGI.
Response: > 100 µM

Prompt: // lookup TGI for CCOC(=O)NC(Nc1ncccn1)(C(=O)OCC)C(F)(F)F (centres undefined)
Response: > 100 µM

Prompt: Bench note: what TGI did COc1cc(Br)c(C=Nc2cccc3cc(OC)c(OC)cc23)cc1OC show?
Response: > 100 µM

Prompt: Reported TGI for N.N.N.N.N.NC(=O)c1nn[n-]n1.[Cl-].[Co+3] : what is it?
Response: > 100 µM

Prompt: // lookup TGI for COc1c2cc(C(C)(C)C)cc1Cc1cccc(c1OCc1cccc([N+](=O)[O-])c1)Cc1cc(C(C)(C)C)cc(c1OC)Cc1cccc(c1OCc1cccc([N+](=O)[O-])c1)Cc1cc(C(C)(C)C)cc(c1OC)Cc1cccc(c1OCc1cccc([N+](=O)[O-])c1)C2
Response: > 50 µM

Prompt: TGI lookup needed for CC1=NN(c2cccc(Cl)c2)C(=N/c2nc3ccccc3s2)/C1=C\c1ccc(Cl)cc1 , thanks.
Response: 42.3 µM

Prompt: May I ask what TGI has been recorded for Cc1cccc(/C=C/c2c(C(=O)/C=C/c3ccccc3)c(C)nc3ccccc23)c1 ?
Response: 2.98 µM

Prompt: What does the record list as TGI for CCOC(=O)Nc1ccc2c(c1)/C(=N\NC(N)=S)c1ccccc1-2 ?
Response: 32.6 µM

These measurements were taken from PubChem BioAssay (NCI).
